Hey, just so you know, these numbers are from patent US20250002543A1.

Study Target: human antibody (gamma globulin preparation, manufactured by The Chemo-Sero-Therapeutic Research Institute) (human)
Assay Explanation: ELISA; human gamma globulin immobilised; acid treatment 50 mM buffer pH 3.0, 25 C, 15 min; elution rate = 1 - remaining binding activity
Recorded Elution rate [%] for the following binders
Test Readout: Elution rate [%] (%)

Binder	Test Readout	Quantitative Readout
FpL_C3KX 7d_N44H (designed binder) ETPGESAEEVTIRVNLIFADGRIQTAEFIGTFEEATAEAYAYAHLLARDYGDFTADLEDGGYTINIRFAGHHHHHH	Elution rate [%]	82
FpL_C3KX 7d_Y53S (designed binder) ETPGESAEEVTIRVNLIFADGRIQTAEFIGTFEEATAEAYAYANLLARDYGDSTADLEDGGYTINIRFAGHHHHHH	Elution rate [%]	83
FpL_C3KX 7d_K38L (designed binder) ETPGESAEEVTIRVNLIFADGRIQTAEFIGTFEEATALAYAYANLLARDYGDFTADLEDGGYTINIRFAGHHHHHH	Elution rate [%]	88
FpL_C3KX 7d_K38H (designed binder) ETPGESAEEVTIRVNLIFADGRIQTAEFIGTFEEATAHAYAYANLLARDYGDFTADLEDGGYTINIRFAGHHHHHH	Elution rate [%]	86
FpL_C3KX 7d_G21R (designed binder) ETPGESAEEVTIRVNLIFADRRIQTAEFIGTFEEATAEAYAYANLLARDYGDFTADLEDGGYTINIRFAGHHHHHH	Elution rate [%]	82
FpL_C3KX 7d_N50M (designed binder) ETPGESAEEVTIRVNLIFADGRIQTAEFIGTFEEATAEAYAYANLLARDMGDFTADLEDGGYTINIRFAGHHHHHH	Elution rate [%]	86
